The measured values listed here are drawn from PubChem BioAssay (NCI).

System: MCF7 breast
Measurement Description: NCI tumour cell line growth inhibition, 384-well format; in the data active = GI50 below about 0.43 µM; inactive = the rest
# valid calls are TRUE for active, FALSE for inactive; nothing else

Known results for compounds:
I would be grateful if you could indicate the recorded call for CCC[C@H](Nc1nc(-c2ccc(NC(=O)NCC)c(OC)c2)ncc1C)c1cccnc1 .
TRUE

What call does the record list for Cc1cc(Nc2ncc(Cl)c(Nc3ccccc3S(=O)(=O)C(C)C)n2)c(OC(C)C)cc1C1CCNCC1 ?
TRUE

For COc1cc(C(=O)O)ccc1NC(=O)[C@@H]1N[C@@H](CC(C)(C)C)[C@](C#N)(c2ccc(Cl)cc2F)[C@H]1c1cccc(Cl)c1F , which call appears in the assay record?
TRUE

***
Recorded call for Nc1nc(F)nc2c1ncn2C1OC(COP(=O)(O)O)C(O)C1O (centres undefined) ?
FALSE

###

Exercise: state measured GI50 for each of the compounds provided.
Test system: OVCAR-3 ovarian
Measurement Description: NCI tumour cell line growth inhibition, 384-well format

State the recorded GI50 for this entry: CCOC(=O)c1ccc2[nH]c(Cc3[nH]c4ccc(C(=O)OCC)cc4c3C)c(C)c2c1
2.97 µM

Report GI50 for CNC(=O)c1ccc(Nc2nc(OC3CCCC3)c3c(-c4ccc5nc(C)oc5c4)c[nH]c3n2)c(OC)c1 please.
0.169 µM

Field request: GI50 | item: Cc1c(N)nc([C@H](CC(N)=O)NC[C@H](N)C(N)=O)nc1C(=O)N[C@H](C(=O)N[C@H](C)[C@@H](O)[C@H](C)C(=O)N[C@H](C(=O)NCCc1nc(-c2nc(C(=O)NCCC[S+](C)C)cs2)cs1)[C@@H](C)O)C(OC1OC(CO)C(O)C(O)C1OC1OC(CO)C(O)C(OC(N)=O)C1O)c1cnc[nH]1 (some centres undefined)
3.67 µM

New cases:
Consider the compound shown here: CO[C@H]1C[C@@H]2CC[C@@H](C)[C@@](O)(O2)C(=O)C(=O)N2CCCC[C@H]2C(=O)O[C@H]([C@H](C)C[C@@H]2CC[C@@H](OC(=O)C(C)(CO)CO)[C@H](OC)C2)CC(=O)[C@H](C)/C=C(\C)[C@@H](O)[C@@H](OC)C(=O)[C@H](C)C[C@H](C)/C=C/C=C/C=C/1C What is its recorded GI50?
0.867 µM

###

Tested on: HCT-15 colon
Measurement Description: NCI tumour cell line growth inhibition, 384-well format; in the data active means GI50 below about 0.43 µM; inactive means the rest
# valid calls are yes for active, no for inactive; nothing else

What was the test verdict on CO[C@H]1C[C@@H]2CC[C@@H](C)[C@@](O)(O2)C(=O)C(=O)N2CCCC[C@H]2C(=O)O[C@H]([C@H](C)C[C@@H]2CC[C@@H](OC(=O)C(C)(CO)CO)[C@H](OC)C2)CC(=O)[C@H](C)/C=C(\C)[C@@H](O)[C@@H](OC)C(=O)[C@H](C)C[C@H](C)/C=C/C=C/C=C/1C ?
no

Hi team, can someone confirm the assay call for Cc1c(N)nc([C@H](CC(N)=O)NC[C@H](N)C(N)=O)nc1C(=O)N[C@H](C(=O)N[C@H](C)[C@@H](O)[C@H](C)C(=O)N[C@H](C(=O)NCCc1nc(-c2nc(C(=O)NCCC[S+](C)C)cs2)cs1)[C@@H](C)O)C(OC1OC(CO)C(O)C(O)C1OC1OC(CO)C(O)C(OC(N)=O)C1O)c1cnc[nH]1 (stereo not given in full) ?
yes

Hi team, can someone confirm the assay call for COc1cc(C(=O)O)ccc1NC(=O)[C@@H]1N[C@@H](CC(C)(C)C)[C@](C#N)(c2ccc(Cl)cc2F)[C@H]1c1cccc(Cl)c1F ?
no

Recorded test call requested for CNC(=O)c1ccc(Nc2nc(OC3CCCC3)c3c(-c4ccc5nc(C)oc5c4)c[nH]c3n2)c(OC)c1
yes

For the next question, use this compound.
So what was the verdict on Cc1cc(Nc2ncc(Cl)c(Nc3ccccc3S(=O)(=O)C(C)C)n2)c(OC(C)C)cc1C1CCNCC1 in this test?
no

###

Test system: UACC-257 melanoma
Measurement Description: NCI tumour cell line growth inhibition, 384-well format
Reported Metric: log10(TGI) (log10 of the value in µM)
Heads up, the numbers here are log10 of TGI in µM units.

Field request: log10(TGI) | item: CNC(=O)c1ccc(Nc2nc(OC3CCCC3)c3c(-c4ccc5nc(C)oc5c4)c[nH]c3n2)c(OC)c1
1.67

Query: log10(TGI); subject: COc1cc(C(=O)O)ccc1NC(=O)[C@@H]1N[C@@H](CC(C)(C)C)[C@](C#N)(c2ccc(Cl)cc2F)[C@H]1c1cccc(Cl)c1F
-0.18

# lookup: log10(TGI) of Cc1cc(Nc2ncc(Cl)c(Nc3ccccc3S(=O)(=O)C(C)C)n2)c(OC(C)C)cc1C1CCNCC1
0.18

Answer for every listed entry: what is its log10(TGI)? The entries follow.
1. CO[C@H]1C[C@@H]2CC[C@@H](C)[C@@](O)(O2)C(=O)C(=O)N2CCCC[C@H]2C(=O)O[C@H]([C@H](C)C[C@@H]2CC[C@@H](OC(=O)C(C)(CO)CO)[C@H](OC)C2)CC(=O)[C@H](C)/C=C(\C)[C@@H](O)[C@@H](OC)C(=O)[C@H](C)C[C@H](C)/C=C/C=C/C=C/1C
2. CCC[C@H](Nc1nc(-c2ccc(NC(=O)NCC)c(OC)c2)ncc1C)c1cccnc1

1. 1.31
2. 1.21

###

Would you mind telling me the reported TGI of each entry?
Test system: SF-295 CNS
Measurement Description: NCI tumour cell line growth inhibition, 384-well format
Give bare numbers, in µM.

Sample records with TGI:
What is its TGI for SF-295 CNS? Entry: Cc1c(N)nc([C@H](CC(N)=O)NC[C@H](N)C(N)=O)nc1C(=O)N[C@H](C(=O)N[C@H](C)[C@@H](O)[C@H](C)C(=O)N[C@H](C(=O)NCCc1nc(-c2nc(C(=O)NCCC[S+](C)C)cs2)cs1)[C@@H](C)O)C(OC1OC(CO)C(O)C(O)C1OC1OC(CO)C(O)C(OC(N)=O)C1O)c1cnc[nH]1 (some centres undefined)
0.824

API: value(readout= TGI, system= SF-295 CNS, query= CCC[C@H](Nc1nc(-c2ccc(NC(=O)NCC)c(OC)c2)ncc1C)c1cccnc1 )
0.0431

Observed TGI on SF-295 CNS for CCOC(=O)c1ccc2[nH]c(Cc3[nH]c4ccc(C(=O)OCC)cc4c3C)c(C)c2c1 , please.
4.59

---
Field: TGI (SF-295 CNS). Entry: Cc1c(N(C(=O)c2cc(-c3cc(Cl)ccc3C(=O)N3Cc4ccccc4C[C@H]3CN3CCOCC3)n(C)c2C)c2ccc(O)cc2)cc(C#N)n1C
62.6

###

I'd appreciate it if you could supply TGI values for the items below.
Tested on: ACHN renal
Measurement Description: NCI tumour cell line growth inhibition, 384-well format
Numbers only, in µM.

Record excerpt, results attached:
Report TGI for Cc1c(N)nc([C@H](CC(N)=O)NC[C@H](N)C(N)=O)nc1C(=O)N[C@H](C(=O)N[C@H](C)[C@@H](O)[C@H](C)C(=O)N[C@H](C(=O)NCCc1nc(-c2nc(C(=O)NCCC[S+](C)C)cs2)cs1)[C@@H](C)O)C(OC1OC(CO)C(O)C(O)C1OC1OC(CO)C(O)C(OC(N)=O)C1O)c1cnc[nH]1 (some centres undefined) please.
0.929

Recorded TGI of COc1cc(C(=O)O)ccc1NC(=O)[C@@H]1N[C@@H](CC(C)(C)C)[C@](C#N)(c2ccc(Cl)cc2F)[C@H]1c1cccc(Cl)c1F , please.
1.49

Any idea what its TGI is? The compound is CCC[C@H](Nc1nc(-c2ccc(NC(=O)NCC)c(OC)c2)ncc1C)c1cccnc1
15.6

More entries:
Reported TGI, compound CCOC(=O)c1ccc2[nH]c(Cc3[nH]c4ccc(C(=O)OCC)cc4c3C)c(C)c2c1 : ____
8.24

###

Test system: MDA-MB-435 melanoma
Measurement Description: NCI tumour cell line growth inhibition, 384-well format
Reported Metric: TGI (µM)
Numbers only, in µM.

Give the measured TGI of CCOC(=O)c1ccc2[nH]c(Cc3[nH]c4ccc(C(=O)OCC)cc4c3C)c(C)c2c1 .
61.4

Requested field: TGI. Item: CO[C@H]1C[C@@H]2CC[C@@H](C)[C@@](O)(O2)C(=O)C(=O)N2CCCC[C@H]2C(=O)O[C@H]([C@H](C)C[C@@H]2CC[C@@H](OC(=O)C(C)(CO)CO)[C@H](OC)C2)CC(=O)[C@H](C)/C=C(\C)[C@@H](O)[C@@H](OC)C(=O)[C@H](C)C[C@H](C)/C=C/C=C/C=C/1C
23.6

Param item = CCC[C@H](Nc1nc(-c2ccc(NC(=O)NCC)c(OC)c2)ncc1C)c1cccnc1 ; retrieve measured TGI.
0.0382

Consider now this further compound.
I am curious: what TGI value has been reported for Cc1c(N(C(=O)c2cc(-c3cc(Cl)ccc3C(=O)N3Cc4ccccc4C[C@H]3CN3CCOCC3)n(C)c2C)c2ccc(O)cc2)cc(C#N)n1C ?
19.3
